Recorded values, source the supplement of paper PMC6555819.

# Test system: PPARg:RXRa 30nM:10nM, anti-RXR (NR concentration 30 nM, RXRa partner concentration 10 nM)
# procedure-details: PBM binding z-score (relative to random genomic background probes); higher = stronger binding; sequences stand for … in GC…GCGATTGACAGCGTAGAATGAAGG
Hi there, I'd appreciate the recorded PBM binding z-score for every entry that follows.

A selection of reference data follows.
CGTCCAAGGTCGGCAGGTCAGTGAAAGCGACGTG    -0.459
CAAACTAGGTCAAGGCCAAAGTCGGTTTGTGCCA    4.34
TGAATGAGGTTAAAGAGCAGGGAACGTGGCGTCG    4.52
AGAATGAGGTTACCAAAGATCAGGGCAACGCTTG    1.15

Please give PBM binding z-score, item by item, for the list that follows.
1. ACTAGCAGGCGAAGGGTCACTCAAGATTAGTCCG
2. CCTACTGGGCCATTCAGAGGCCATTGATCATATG
3. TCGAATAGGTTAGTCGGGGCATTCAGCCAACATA
4. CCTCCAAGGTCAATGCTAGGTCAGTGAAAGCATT

Output:
[3.86, -0.265, 2.74, 1.2]

Required: PBM binding z-score, one value per sequence below.
1. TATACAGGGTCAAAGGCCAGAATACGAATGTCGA
2. CCTAGGAGGACAACAGGAGGTCAGAGCTGCCAGA
3. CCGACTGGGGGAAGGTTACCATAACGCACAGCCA
4. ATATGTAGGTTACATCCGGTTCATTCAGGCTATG
5. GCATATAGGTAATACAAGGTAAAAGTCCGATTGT
6. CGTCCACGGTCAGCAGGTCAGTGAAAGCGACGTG
7. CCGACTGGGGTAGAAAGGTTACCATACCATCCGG
8. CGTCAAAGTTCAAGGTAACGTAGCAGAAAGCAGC

Output:
5.21
-0.229
0.95
2.2
-0.0355
-0.695
1.08
2.09

For every record below, what is its PBM binding z-score?
1. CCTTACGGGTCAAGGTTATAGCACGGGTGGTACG
2. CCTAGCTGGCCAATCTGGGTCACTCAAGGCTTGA

Output:
[2.06, -0.389]

Look up PBM binding z-score for the entries below, preserving their order.
1. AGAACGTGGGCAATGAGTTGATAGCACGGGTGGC
2. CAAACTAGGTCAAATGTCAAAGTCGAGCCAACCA
3. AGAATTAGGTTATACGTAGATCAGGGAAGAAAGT
4. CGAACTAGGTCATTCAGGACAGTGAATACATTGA
5. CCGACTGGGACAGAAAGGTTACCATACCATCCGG
6. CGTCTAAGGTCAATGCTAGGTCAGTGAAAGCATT

Output:
1: -0.342; 2: 9.92; 3: 1.74; 4: 3.42; 5: 0.364; 6: 1.9
